Test: self-splicing fitness, log relative to wild type (ln ratio); higher = more splicing; Tetrahymena group I intron in knt gene, E. coli kanamycin selection, DiMSum; sequences stand for … in CUCUCU…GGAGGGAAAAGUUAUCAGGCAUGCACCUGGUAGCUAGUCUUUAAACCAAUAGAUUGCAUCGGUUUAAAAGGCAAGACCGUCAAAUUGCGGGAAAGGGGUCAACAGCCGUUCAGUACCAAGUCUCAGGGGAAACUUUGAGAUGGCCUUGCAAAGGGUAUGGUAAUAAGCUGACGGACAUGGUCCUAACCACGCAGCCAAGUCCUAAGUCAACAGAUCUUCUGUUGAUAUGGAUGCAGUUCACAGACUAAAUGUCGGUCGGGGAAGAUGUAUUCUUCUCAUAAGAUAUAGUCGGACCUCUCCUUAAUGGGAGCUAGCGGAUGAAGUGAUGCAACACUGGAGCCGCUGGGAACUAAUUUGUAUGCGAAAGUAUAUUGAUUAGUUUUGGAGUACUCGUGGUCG;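 note: selection with 25 µg/mL kanamycin versus none on LB agar overnight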
Settings: 30 °C
Measure: self-splicing fitness (ln)

Field request: self-splicing fitness (ln) | item: "GCUAAGCAAUAUUACGUCUU"
-1.18

Another sequence to check: "UGGCAGCAAUAUUACGGCAG"
-0.148

Another sequence to check: "AACAAGCAAUAUUACGUUGA"
-3.31

Another sequence to check: "ACACAGCAAUAUUACGCGGC"
-2.29

Another sequence to check: "UGACAGCAAUAUUACGGGGG"
-2.61

Another sequence to check: "AAGUAGCAAUAUUACGGCUG"
-0.444

Another sequence to check: "CGUAAGCAAUAUUACGGGAC"
-2.9

Another sequence to check: "CCGUAGCAAUAUUACGACAC"
-1.82

Another sequence to check: "UUAAAGCAAUAUUACGUUCU"
-1.08

Another sequence to check: "CCGAAGCAAUAUUACGUCUC"
-3.9

Another sequence to check: "AUUAAGCAAUAUUACGCUAU"
-3.62

Another sequence to check: "AUUUAGCAAUAUUACGACUC"
-0.866

Another sequence to check: "GGGGAGCAAUAUUACGACCG"
-1.02

Another sequence to check: "CGUGAGCAAUAUUACGGAGA"
-3.88

Another sequence to check: "GCGCAGCAAUAUUACGACAC"
-0.738

Another sequence to check: "CAUAAGCAAUAUUACGCCAA"
-2.33

Another sequence to check: "AGCUAGCAAUAUUACGUAGC"
-1.84

Another sequence to check: "UUAGAGCAAUAUUACGGCCA"
-1.02

Another sequence to check: "AUGUAGCAAUAUUACGUCAA"
-2.9

Another sequence to check: "CGUCAGCAAUAUUACGUUUU"
-3.25

###

Field: self-splicing fitness (ln). Provide a value for each of the sequences that follow.
Experiment: self-splicing fitness, log relative to wild type (ln ratio); higher = more splicing; Tetrahymena group I intron in knt gene, E. coli kanamycin selection, DiMSum; sequences stand for … in CUCUCU…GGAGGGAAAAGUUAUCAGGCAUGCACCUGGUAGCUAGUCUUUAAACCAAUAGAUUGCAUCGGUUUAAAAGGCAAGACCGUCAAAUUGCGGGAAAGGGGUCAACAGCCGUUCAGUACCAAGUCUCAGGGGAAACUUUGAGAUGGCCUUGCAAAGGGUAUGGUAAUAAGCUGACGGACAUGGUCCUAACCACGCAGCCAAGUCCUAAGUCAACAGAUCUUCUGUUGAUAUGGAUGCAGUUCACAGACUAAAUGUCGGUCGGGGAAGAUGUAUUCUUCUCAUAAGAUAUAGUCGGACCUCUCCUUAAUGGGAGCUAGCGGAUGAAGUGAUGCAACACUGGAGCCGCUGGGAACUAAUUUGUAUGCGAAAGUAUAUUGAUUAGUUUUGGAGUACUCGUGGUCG
Settings: 37 °C
Lab note: jot the number down without any unit.

Field request: self-splicing fitness (ln) | item: "CAGCAGCAAUAUUACGAUUC"
-1.78

Another sequence to check: "CACAAGCAAUAUUACGCGAC"
-3.22

Another sequence to check: "CACCAGCAAUAUUACGCUGU"
-2.63

Another sequence to check: "GGAUAGCAAUAUUACGUGUA"
-2.18

Another sequence to check: "UAUUAGCAAUAUUACGGACU"
-1.47

Another sequence to check: "GCGCAGCAAUAUUACGGCUU"
0.531

Another sequence to check: "CUAGAGCAAUAUUACGGAGA"
-2.51

Another sequence to check: "CGUUAGCAAUAUUACGUUUU"
-2.99

Another sequence to check: "GAGCAGCAAUAUUACGAGCC"
-0.285

Another sequence to check: "CAUCAGCAAUAUUACGUACG"
-0.0455

Another sequence to check: "UACAAGCAAUAUUACGCGCA"
0.163

Another sequence to check: "AGGUAGCAAUAUUACGCACA"
0.0312

Another sequence to check: "UCUAAGCAAUAUUACGCACU"
-1.52

###

Field: self-splicing fitness (ln). Provide a value for each of the sequences that follow.
Assay: self-splicing fitness, log relative to wild type (ln ratio); higher = more splicing; Tetrahymena group I intron in knt gene, E. coli kanamycin selection, DiMSum; sequences stand for … in CUCUCU…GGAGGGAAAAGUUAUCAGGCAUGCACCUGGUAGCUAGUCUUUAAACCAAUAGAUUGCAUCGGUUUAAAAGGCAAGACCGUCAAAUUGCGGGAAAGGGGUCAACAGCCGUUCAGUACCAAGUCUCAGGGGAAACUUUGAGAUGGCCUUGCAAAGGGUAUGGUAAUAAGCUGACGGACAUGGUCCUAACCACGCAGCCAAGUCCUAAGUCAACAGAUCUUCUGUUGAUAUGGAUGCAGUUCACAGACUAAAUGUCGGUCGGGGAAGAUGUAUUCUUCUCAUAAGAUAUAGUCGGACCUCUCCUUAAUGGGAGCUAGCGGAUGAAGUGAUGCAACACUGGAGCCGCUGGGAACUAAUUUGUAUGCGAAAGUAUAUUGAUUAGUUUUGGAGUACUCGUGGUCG
Settings: 37 °C
Lab note: jot the number down without any unit.

Field request: self-splicing fitness (ln) | item: "GAUUAGCAAUAUUACGAGCC"
-1.4

Another sequence to check: "GUUUAGCAAUAUUACGUAAC"
-1.96

Another sequence to check: "ACAAAGCAAUAUUACGUCAU"
-2.4

###

Field: self-splicing fitness (ln). Provide a value for each of the sequences that follow.
Assay: self-splicing fitness, log relative to wild type (ln ratio); higher = more splicing; Tetrahymena group I intron in knt gene, E. coli kanamycin selection, DiMSum; sequences stand for … in CUCUCU…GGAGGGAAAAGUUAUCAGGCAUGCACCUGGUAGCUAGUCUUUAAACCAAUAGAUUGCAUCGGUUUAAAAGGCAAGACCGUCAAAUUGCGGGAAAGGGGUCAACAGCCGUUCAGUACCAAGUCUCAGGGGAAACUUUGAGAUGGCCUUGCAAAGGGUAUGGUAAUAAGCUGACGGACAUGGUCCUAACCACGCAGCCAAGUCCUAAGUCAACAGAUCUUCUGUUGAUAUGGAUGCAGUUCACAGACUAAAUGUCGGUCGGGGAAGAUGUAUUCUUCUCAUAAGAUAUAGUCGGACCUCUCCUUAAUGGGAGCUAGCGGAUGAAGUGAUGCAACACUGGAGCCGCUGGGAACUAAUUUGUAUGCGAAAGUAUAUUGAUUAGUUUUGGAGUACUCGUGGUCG
Settings: 37 °C
Lab note: jot the number down without any unit.

Field request: self-splicing fitness (ln) | item: "AUGAAGCAAUAUUACGAGGA"
-2.6

Another sequence to check: "UUCUAGCAAUAUUACGUUUG"
-2.66

Another sequence to check: "GAGUAGCAAUAUUACGAGGG"
-1.94

Another sequence to check: "ACUGAGCAAUAUUACGUUGC"
-2.04

Another sequence to check: "UGUUAGCAAUAUUACGGCCA"
0.166

Another sequence to check: "AUUUAGCAAUAUUACGGCUA"
0.255

Another sequence to check: "CCCAAGCAAUAUUACGAGAA"
-2.87

Another sequence to check: "UUUCAGCAAUAUUACGAAAC"
-2.53

Another sequence to check: "ACUUAGCAAUAUUACGUGUU"
-1.5

Another sequence to check: "GAUCAGCAAUAUUACGGUAA"
0.194

Another sequence to check: "GUGCAGCAAUAUUACGUGCU"
-2.35

Another sequence to check: "CAAGAGCAAUAUUACGGGUU"
-3.25

Another sequence to check: "AGCAAGCAAUAUUACGUCUA"
-0.456

Another sequence to check: "AGCGAGCAAUAUUACGUAGU"
-1.11

Another sequence to check: "GUGUAGCAAUAUUACGAAGU"
-1.67

Another sequence to check: "UAAGAGCAAUAUUACGAUGG"
-1.68

Another sequence to check: "GGUUAGCAAUAUUACGCACA"
-0.339

Another sequence to check: "CUAUAGCAAUAUUACGGUUG"
0.0411

Another sequence to check: "AGACAGCAAUAUUACGGUAA"
-1.37

Another sequence to check: "CACUAGCAAUAUUACGUACU"
-2.81

Another sequence to check: "GUGGAGCAAUAUUACGUCCG"
-1.01

Another sequence to check: "CUGCAGCAAUAUUACGGGCA"
-1.06

Another sequence to check: "CUGUAGCAAUAUUACGGCCC"
-0.731

Another sequence to check: "CAGGAGCAAUAUUACGGUUC"
-1.74

Another sequence to check: "CUUGAGCAAUAUUACGGAUC"
-1.45

Another sequence to check: "GCAAAGCAAUAUUACGUACC"
-0.64

Another sequence to check: "CCCGAGCAAUAUUACGUCAC"
-2.27

Another sequence to check: "CACCAGCAAUAUUACGUCUC"
-2.38

Another sequence to check: "ACCUAGCAAUAUUACGGGCC"
-0.63
